meta.source: the supplement of paper PMC12764529

Below, each entry is listed with its recorded folding stability dG unfold.
test: folding stability dG unfold (combined trypsin and chymotrypsin); higher = more stable
Form field: result (number plus unit)

The cases that follow already have their folding stability dG unfold on record.
In [3]: df
Out[3]:
                             query_sequence        experimental_endpoint  experimental_value
0  SAGMKYTAEVKVKEKDKEIDVTVSDDATFTDPEGKETTFKIGSEEELKKALEEIFPEKYPYEILSVKVLSAG [r14_41_JUSTAS]  folding stability dG unfold    -0.0975 kcal/mol
1  SAGGSAGGSAGGSPRHYYVEIEFPNGRKMSIPIESPEEALDYLEDHNYPIKDVELHPLKSAGGSAGGSAGGS [r4_213_TrROS]  folding stability dG unfold     -0.323 kcal/mol

Name the recorded folding stability dG unfold for SAGGSAGGSAGGSWLEFTFIDPGYGWIISTMKIEINPNGNLNMDMEMVPLKPADDPEDASAGGSAGGSAGGS [r4_178_TrROS] .
2.9 kcal/mol

* * *

experiment: folding stability dG unfold from chymotrypsin proteolysis; higher = more stable
experimental-endpoint: folding stability dG unfold (kcal/mol)
Provide the reading as a plain figure in kcal/mol.

>>> df
                             query_sequence        experimental_endpoint  result_units  experimental_value
0  SAMIIVAMAPDRMLIIGPDGRVLVVDDPEKAIELIKELFPVPIIVIPVPEDSPVFRELLERLERERTGESAG [r14_235_TrMRF]  folding stability dG unfold      kcal/mol                3.18
1  SAGGMESTSIPLEFKFEGDEEKAKKKVEEEAKKIAEEKGIEIKIEVKFDPNKPTATVTILVKGKEVEESAGG [r13_845_JUSTAS]  folding stability dG unfold      kcal/mol              -0.281
2  SAGGSAGGSAGGMILTGDRAEILARLEAEGLGVAEEETVEEGDAPVTPVRVEVPPGAAGSAGGSAGGSAGGS [r10_885_JUSTAS]  folding stability dG unfold      kcal/mol               0.972
3  SAGMPADTFIELNITITVPSEEYEADPAAVKAAADAAIAAAKAAGLPVDAATFTFERVPPVDPNNPRVGSAG [r5_979_JUSTAS]  folding stability dG unfold      kcal/mol              -0.605

Now examine the next entry.
Name the recorded folding stability dG unfold for SAGMVEIVHDPAGYYTVNVTLTKEGKPTSRTIRVPPELSPEEVKALVEELAKEEGVDDVEVTVIPLPESAGG [r19_31_JUSTAS] .
1.51

* * *

test: folding stability dG unfold from trypsin proteolysis; higher = more stable
Below, each entry is listed with its recorded folding stability dG unfold.
Provide the reading as a plain figure in kcal/mol.

The cases that follow already have their folding stability dG unfold on record.
                             query_sequence        experimental_endpoint  experimental_value
0  SAGGSAGGSAGIVIKAKSPDEAVEALKKLFEKTGKADINIKPVKVLPDGNVLVEAGIDNKSAGGSAGGSAGG [r17_430_TrMRF]  folding stability dG unfold              -0.403
1  MTPEERIEEIEAKARELLRELGLPPEVRLTVEAEVRPRPDGRLELRVRVTVEFPGPPGAIPPELLEALAEES [r1_98_TrMRF]  folding stability dG unfold                 2.7

Name the recorded folding stability dG unfold for SKKVKEITIEGAPPGAKVTITVEEKGDKLIVRVEVERNGKTETFEVEMTLDELKALLDAGYTIRITEVIPSA [r9_1021_TrROS_Hall] .
2.04
